All figures here come from ChEMBL document CHEMBL4229345.

testMethodNotes: Stability in mouse serum assessed as parent compound recovery after 15 mins by LC/MS analysis
Type: ADME, cell-free
reportedConditions: read-out: Drug recovery
endpointName: remaining at 0.25 h (%)
Numbers only, in %.

Challenge: Looking for the measured remaining at 0.25 h of O=Cc1ccc(OCCCCCCCCCCCCCC[P+](c2ccccc2)(c2ccccc2)c2ccccc2)cc1O.[Br-] , can you help?
Response given: 12

* * *

testMethodNotes: Drug metabolism in human liver S9 fraction assessed as CYP450 mediated compound hydrolysis by measuring parent compound remaining at 5 uM measured after 30 mins in presence of NADPH by RP-HPLC analysis
Assay type: ADME, subcellular
reportedConditions: read-out: Stability
endpointName: remaining at 0.5 h, 5 µM (%)
Numbers only, in %.

Challenge: Looking for the measured remaining at 0.5 h, 5 µM of Cc1cc(O)cc(O)c1C(=O)OCCCCCCCCCCCCCC[P+](c1ccccc1)(c1ccccc1)c1ccccc1.[Br-] , can you help?
Response given: 101

* * *

testMethodNotes: Drug metabolism in human liver S9 fraction assessed as UGT mediated compound hydrolysis by measuring parent compound remaining at 5 uM measured after 120 mins in presence of UDPGA by RP-HPLC analysis
Type: ADME, subcellular
reportedConditions: read-out: Stability
endpointName: remaining at 2 h, 5 µM (%)
Answers are plain numbers, in %.

Challenge: Looking for the measured remaining at 2 h, 5 µM of Cc1cc(O)cc(O)c1C(=O)OCCCCCCCCCCCCCC[P+](c1ccccc1)(c1ccccc1)c1ccccc1.[Br-] , can you help?
Response given: 52.6

* * *

testMethodNotes: Drug metabolism in human liver microsomes assessed as CYP450 mediated compound hydrolysis by measuring parent compound remaining at 5 uM measured after 30 mins in presence of NADPH by RP-HPLC analysis
Type: ADME
reportedConditions: read-out: Stability
endpointName: remaining at 0.5 h, 5 µM
Reply with the number and its unit after it.

Challenge: Looking for the measured remaining at 0.5 h, 5 µM of Cc1cc(O)cc(O)c1C(=O)OCCCCCCCCCCCCCC[P+](c1ccccc1)(c1ccccc1)c1ccccc1.[Br-] , can you help?
Response given: 86%

* * *

Tested on: Trypanosoma brucei brucei
testMethodNotes: Anti-parasitic activity against bloodstream trypomastigote stage of Trypanosoma brucei brucei with AQP triple knock out after 48 hrs by resazurin-based assay
Type: functional, organism-based
endpointName: log10 of EC50 (log10 of the value in µM)
Lab note - EC50 converted to log10 from values in µM.

Cc1cc(O)ccc1C(=O)OCCCCCCCCCCCCCCOC=O :: 0.26
O=Cc1ccc(OCCCCCCCCCCCCCC[P+](c2ccccc2)(c2ccccc2)c2ccccc2)cc1O.[Br-] :: -1.28
O=C(OCCCCCCCCCCOC(=O)c1ccc(O)cc1O)c1ccc(O)cc1O :: 0.85
O=C(OCCCCCCCCCCCCCC[P+](c1ccccc1)(c1ccccc1)c1ccccc1)c1ccc(O)cc1F.[Br-] :: -3.43
O=Cc1ccc(OCCCCCCCCCCCCCCOc2ccc(C=O)c(O)c2)cc1O :: 2.60
O=COCCCCCCCCCCOC(=O)c1ccc(O)cc1O :: 1.19
O=C(OCCCCCCCCCCCCCCCCBr)c1ccc(O)cc1O :: 0.71
Cc1cc(O)ccc1C(=O)OCCCCCCCCCCCCCC[n+]1cccc2ccccc21.[Br-] :: -1.07
Cc1cc(O)ccc1C(=O)OCCCCCCCCCCCCCC[P+](c1ccccc1)(c1ccccc1)c1ccccc1.[Br-] :: -2.30

Here is another molecule to look at.
Challenge: Any idea what log10 of EC50 came out for O=C(OCCCCCCCCCCCCCCBr)c1ccc(O)cc1F on Trypanosoma brucei brucei?
Response given: 0.85

* * *

testMethodNotes: Stability in mouse serum assessed as compound hydrolysis after 1 hr by LC/MS analysis
Assay type: ADME, cell-free
reportedConditions: read-out: Drug degradation
endpointName: metabolised at 1 h (%)
Numbers only, in %.

Challenge: Looking for the measured metabolised at 1 h of O=C(OCCCCCCCCCCCCCC[n+]1cccc2ccccc21)c1ccc(O)cc1O , can you help?
Response given: 50

* * *

testMethodNotes: Stability in horse serum assessed as compound receovery after 24 hrs by LC/MS analysis
Format: ADME, cell-free, Equus caballus
reportedConditions: read-out: Drug recovery
endpointName: remaining at 24 h (%)
Answers are plain numbers, in %.

Challenge: Looking for the measured remaining at 24 h of COc1ccc([C@@H]2Sc3ccccc3N(CCN(C)C)C(=O)[C@@H]2OC(C)=O)cc1 [DILTIAZEM] , can you help?
Response given: 1

* * *

testMethodNotes: Selectivity index, ratio of CC50 for HEK cells to EC50 for bloodstream trypomastigote stage of wild-type Trypanosoma brucei brucei Lister 427
Format: toxicity
reportedConditions: human, read-out: Ratio CC50/EC50
For each entry below, report its selectivity ratio value.

Consider the reported selectivity ratio for these compounds:
O=COCCCCCCCCCCCCCCCCOC(=O)c1ccc(O)cc1O :: > 34
O=C(OCCCCCCCCCCOC(=O)c1ccc(O)cc1O)c1ccc(O)cc1O :: > 8
O=C(OCCCCCCCCCCCCCCOC(=O)c1ccc(O)cc1O)c1ccc(O)cc1O :: > 9
O=C(OCCCCCCCCCCCCCCCCBr)c1ccc(O)cc1O :: > 8
O=C(OCCCCCCCCCCCCOC(=O)c1ccc(O)cc1O)c1ccc(O)cc1O :: > 12
O=COCCCCCCCCCCOC(=O)c1ccc(O)cc1O :: > 12

Here is another compound to look at.
Challenge: Looking for the measured selectivity ratio of O=C(OCCCCCCCCCCCCCCCCOC(=O)c1ccc(O)cc1O)c1ccc(O)cc1O , can you help?
Response given: > 15

* * *

testMethodNotes: Half life in mouse serum by LC/MS analysis
Assay type: ADME, cell-free
For each entry below, report its half-life value.
Answers are plain numbers, in min.

Cc1cc(O)ccc1C(=O)OCCCCCCCCCCCCCC[n+]1cccc2ccccc21.[Br-] :: 30

Here is another compound to look at.
Challenge: Looking for the measured half-life of Cc1cc(O)ccc1C(=O)OCCCCCCCCCCCCCC[P+](c1ccccc1)(c1ccccc1)c1ccccc1.[Br-] , can you help?
Response given: 60

* * *

For each entry below, report its selectivity ratio value.
testMethodNotes: Selectivity index, ratio of CC50 for HFF cells to EC50 for bloodstream trypomastigote stage of wild-type Trypanosoma brucei brucei Lister 427
Format: toxicity
reportedConditions: human, read-out: Ratio CC50/EC50

O=Cc1ccc(OCCCCCCCCCCCCCC[n+]2cccc3ccccc32)cc1O.[Br-] :: > 114

Hey, quick one: what's selectivity ratio for each of these?
1. Cc1cc(O)ccc1C(=O)OCCCCCCCCCCCCCC[n+]1cccc2ccccc21.[Br-]
2. Cc1cc(O)ccc1C(=O)OCCCCCCCCCCCCCCBr
3. O=C(OCCCCCCCCCCCCCC[P+](c1ccccc1)(c1ccccc1)c1ccccc1)c1ccc(O)cc1F.[Br-]
4. O=C(OCCCCCCBr)c1ccc(O)cc1O
5. Cc1cc(O)ccc1C(=O)OCCCCCCCCCCCCCC[P+](c1ccccc1)(c1ccccc1)c1ccccc1.[Br-]
6. O=Cc1ccc(OCCCCCCCCCCCCCCBr)cc1O
7. O=Cc1ccc(OCCCCCCCCCCCCCC[P+](c2ccccc2)(c2ccccc2)c2ccccc2)cc1O.[Br-]

Response given:
1. > 952
2. > 13
3. > 344000
4. > 11
5. > 83000
6. > 11
7. > 1500

* * *

testMethodNotes: Selectivity index, ratio of CC50 for HEK cells to EC50 for bloodstream form of Trypanosoma congolense IL3000
Type: toxicity
reportedConditions: human, read-out: Ratio CC50/EC50
endpointName: selectivity ratio

Challenge: Looking for the measured selectivity ratio of O=C(OCCCCCCCCCCCCBr)c1ccc(O)cc1O , can you help?
Response given: > 7.7

* * *

Test system: Trypanosoma brucei brucei
testMethodNotes: Anti-parasitic activity against bloodstream trypomastigote stage of Trypanosoma brucei brucei with AQP triple knock out after 48 hrs by resazurin-based assay
Assay type: functional, organism-based
endpointName: EC50 (µM)
Numbers only, in µM.

Consider the reported EC50 for these compounds:
O=C(OCCCCCCCCCCCCCCOC(=O)c1ccc(O)cc1O)c1ccc(O)cc1O :: 14.8
O=COCCCCCCCCCCCCCCOc1ccc(C=O)c(O)c1 :: 1.82
O=C(NO)c1ccccc1O [SALICYLHYDROXAMIC ACID] :: 8.9

Hey, quick one: what's EC50 for each of these?
1. O=C(OCCCCCCCCCCCCBr)c1ccc(O)cc1O
2. O=C(OCCCCCCBr)c1ccc(O)cc1O
3. O=C(OCCCCCCCCCCCCCCCCOC(=O)c1ccc(O)cc1O)c1ccc(O)cc1O
4. O=C(O)c1ccc(O)cc1O [2,4-DIHYDROXYBENZOIC ACID]
5. O=Cc1ccc(OCCCCCCCCCCCCCCBr)cc1O
6. O=C(OCCCCCCCCCCCCOC(=O)c1ccc(O)cc1O)c1ccc(O)cc1O
7. N=C(N)c1ccc(OCCCCCOc2ccc(C(=N)N)cc2)cc1

Response given:
1. 4.7
2. 12.1
3. 9.3
4. 16.6
5. 7.9
6. 8.9
7. 0.064

Hey, quick one: what's EC50 for each of these?
1. Cc1cc(O)cc(O)c1C(=O)OCCCCCCCCCCCCCC[P+](c1ccccc1)(c1ccccc1)c1ccccc1.[Br-]
2. Cc1cc(O)ccc1C(=O)OCCCCCCCCCCCCCCBr

Response given:
1: 0.0014; 2: 7.2

Hey, quick one: what's EC50 for each of these?
1. Cc1cc(O)cc(O)c1C(=O)OCCCCCCCCCCCCCCBr
2. O=C(OCCCCBr)c1ccc(O)cc1O
3. Cc1cc(O)ccc1C(=O)OCCCCCCCCCCCCCCOC(=O)c1ccc(O)cc1C
4. O=Cc1ccc(OCCCCCCCCCCCCCC[n+]2cccc3ccccc32)cc1O.[Br-]
5. O=COCCCCCCCCCCCCCCCCOC(=O)c1ccc(O)cc1O

Response given:
[6.8, 400, 400, 1.08, 1.27]
